# Test system: LNCaP tumor-transplanted mouse
# procedure.details: Internal radioactivity distribution using LNCaP tumor-transplanted mouse
# Assay type: in vivo
# protocol.conditions: 48 h after administration
measured.metric: Heart (% ID/g)
Reply numerically in % ID/g, unit not repeated.

Please review the following examples before continuing.
Task: Retrieve Heart measured for O=C(O)CC[C@H](NC(=O)N[C@@H](CCCCNC(=O)[C@H](Cc1ccc2ccccc2c1)NC(=O)[C@H]1CC[C@H](CNC(=O)CCC(C(=O)O)N2CCN(CC(=O)O)CCN(C(CCC(=O)N[C@@H](CCCCNC(=O)CCCc3ccc(I)cc3)C(=O)O)C(=O)O)CCN(CC(=O)O)CC2)CC1)C(=O)O)C(=O)O (stereo partly drawn) [[^111In]In-PSMA-NAT-DA1, metal not drawn] and print it.
Output: 4.68

Task: Retrieve Heart measured for O=C([O-])CN1CCN(C(CCC(=O)NCCCC[C@H](NC(=O)N[C@@H](CCC(=O)O)C(=O)O)C(=O)O)C(=O)[O-])CCN(CC(=O)[O-])CCN(C(CCC(=O)Nc2ccccc2)C(=O)[O-])CC1.[111In+3] (stereo partly drawn) [[^111In]In-PSMA-DB, reference compound] and print it.
Output: 0.32

Task: Retrieve Heart measured for O=C([O-])CN1CCN(C(CCC(=O)NCCCC[C@H](NC(=O)N[C@@H](CCC(=O)O)C(=O)O)C(=O)O)C(=O)[O-])CCN(CC(=O)[O-])CCN(C(CCC(=O)N[C@@H](CCCCNC(=O)CCCc2ccc(I)cc2)C(=O)O)C(=O)[O-])CC1.[111In+3] (stereo partly drawn) [[^111In]In-PSMA-DA1] and print it.
Output: 1.66

Task: Retrieve Heart measured for O=C([O-])CN(CCN(CCc1ccc(NC(=O)CCCCCNC(=O)CCC(=O)NCCCC[C@H](NC(=O)N[C@@H](CCC(=O)O)C(=O)O)C(=O)O)cc1)CCN(CC(=O)[O-])Cc1cccc(C(=O)[O-])n1)Cc1cccc(C(=O)[O-])n1.[111In+3] [[^111In]In-Neunpa-1, reference compound] and print it.
Output: 0.18

More entries:
Task: Retrieve Heart measured for O=C([O-])CN(Cc1cccc(C(=O)[O-])n1)C[C@H](Cc1ccc(NC(=O)CCCCCNC(=O)CCC(=O)NCCCC[C@H](NC(=O)N[C@@H](CCC(=O)O)C(=O)O)C(=O)O)cc1)N(CC(=O)[O-])Cc1cccc(C(=O)[O-])n1.[111In+3] [[^111In]In-Octapa-1, reference compound] and print it.
Output: 0.02

Task: Retrieve Heart measured for O=C([O-])CN1CCN(C(CCC(=O)NCCC(=O)N2Cc3ccccc3-c3c(nnn3CCOCCOCCOCCOCCC(=O)NCCCC[C@H](NC(=O)N[C@@H](CCC(=O)O)C(=O)O)C(=O)O)-c3ccccc32)C(=O)[O-])CCN(CC(=O)[O-])CCN(C(CCC(=O)N[C@@H](CCCCNC(=O)CCCc2ccc(I)cc2)C(=O)O)C(=O)[O-])CC1.[111In+3] (stereo partly drawn) [[^111In]In-PtDA] and print it.
Output: 1.98

Task: Retrieve Heart measured for O=C([O-])CN(Cc1cccc(C(=O)[O-])n1)C[C@H](Cc1ccc(NC(=O)[C@H](CCCCNC(=O)CCC(=O)NCCCC[C@H](NC(=O)N[C@@H](CCC(=O)O)C(=O)O)C(=O)O)NC(=O)CCCc2ccc(I)cc2)cc1)N(CC(=O)[O-])Cc1cccc(C(=O)[O-])n1.[111In+3] [[^111In]In-Octapa-2] and print it.
Output: 0.18

Task: Retrieve Heart measured for O=C([O-])CN(Cc1cccc(C(=O)[O-])n1)C[C@H](Cc1ccc(NC(=O)[C@H](CCCCNC(=O)CCC(=O)NCCCC[C@H](NC(=O)N[C@@H](CCC(=O)O)C(=O)O)C(=O)O)NC(=O)COCCOCCOCC(=O)N[C@@H](CCCCNC(=O)CCCc2ccc(I)cc2)C(=O)O)cc1)N(CC(=O)[O-])Cc1cccc(C(=O)[O-])n1.[111In+3] [[^111In]In-Octapa-3] and print it.
Output: 1.37

Task: Retrieve Heart measured for O=C([O-])CN(CCN(CCc1ccc(NC(=O)[C@H](CCCCNC(=O)CCC(=O)NCCCC[C@H](NC(=O)N[C@@H](CCC(=O)O)C(=O)O)C(=O)O)NC(=O)CCCc2ccc(I)cc2)cc1)CCN(CC(=O)[O-])Cc1cccc(C(=O)[O-])n1)Cc1cccc(C(=O)[O-])n1.[111In+3] [[^111In]In-Neunpa-2] and print it.
Output: 0.14
